Listing: switch fluorescence ratio of selected sequences
# System: ATP;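 note: ATP exposure 15 min at 22 °C before imaging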
# PROCEDURE_DETAILS: switch fluorescence ratio, 500 uM ATP over buffer (Cy3 cluster intensity, sum of 5 cycles each) (fold (ratio)); higher = stronger signal-on switching upon ATP binding; sequences stand for … in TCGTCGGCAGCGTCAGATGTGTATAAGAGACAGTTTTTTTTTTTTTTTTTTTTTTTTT…TC
# CONDITION_PARAMETERS: aptamer strand: ATP DNA aptamer (quencher-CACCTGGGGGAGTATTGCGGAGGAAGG + anchor), 100 nM annealed; ATP concentration: 500 uM

Consider the following illustrative entries.
RESIDUES	TARGET_SYSTEM	MEASURED_VALUE
ATGTAGTACG	ATP	1
ACATCAGATG	ATP	1.01
TAAATTAGCT	ATP	1.02

Alright, here's another sequence for you.
query: Need switch fluorescence ratio of TGAAAAGGTC , thanks.
result: 0.982

###

# Tested on: ATP;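 note: ATP exposure 15 min at 22 °C before imaging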
# PROCEDURE_DETAILS: switch fluorescence ratio, 500 uM ATP over buffer (Cy3 cluster intensity, sum of 5 cycles each) (fold (ratio)); higher = stronger signal-on switching upon ATP binding; sequences stand for … in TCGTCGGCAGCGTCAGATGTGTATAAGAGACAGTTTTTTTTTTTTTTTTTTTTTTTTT…TC
# CONDITION_PARAMETERS: aptamer strand: ATP DNA aptamer (quencher-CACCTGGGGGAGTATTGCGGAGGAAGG + anchor), 100 nM annealed; ATP concentration: 500 uM
Rule: Criterion met for switch fluorescence ratio not less than 1, Criterion not met for anything less.

Previously resolved entries follow.
RESIDUES	TARGET_SYSTEM	GROUP
TTTGGGAAAT	ATP	Criterion met
TTTAGGTGCA	ATP	Criterion met
AGTCGTGTCT	ATP	Criterion not met

query: Evaluate CAAATTTGC : switch fluorescence ratio at minimum 1?
result: Criterion not met

query: Also need TTGTGCAAGG , thanks.
result: Criterion met

query: Also need GTAGCAGGCG , thanks.
result: Criterion met

###

# System: ATP;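 note: ATP exposure 15 min at 22 °C before imaging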
# PROCEDURE_DETAILS: switch fluorescence ratio, 500 uM ATP over buffer (Cy3 cluster intensity, sum of 5 cycles each) (fold (ratio)); higher = stronger signal-on switching upon ATP binding; sequences stand for … in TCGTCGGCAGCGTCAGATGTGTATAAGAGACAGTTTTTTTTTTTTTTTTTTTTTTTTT…TC
# CONDITION_PARAMETERS: aptamer strand: ATP DNA aptamer (quencher-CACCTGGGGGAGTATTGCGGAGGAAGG + anchor), 100 nM annealed; ATP concentration: 500 uM
Listing: switch fluorescence ratio of selected sequences
Please give the numeric answer without any surrounding text.

Consider the following illustrative entries.
RESIDUES	REPORTED_ENDPOINT	MEASURED_VALUE
CGTGCTTTTC	switch fluorescence ratio	1.15
CAAATTGGAA	switch fluorescence ratio	0.961
AATATGAGTA	switch fluorescence ratio	0.993
TTCGAAACGA	switch fluorescence ratio	1.1
GTTTGTGTTC	switch fluorescence ratio	0.988
GACGGGGGCA	switch fluorescence ratio	0.999
AATTACTTTT	switch fluorescence ratio	1.02
TCCAGTCAAA	switch fluorescence ratio	1.01
ATGATTGACC	switch fluorescence ratio	1.08
GCGTTTGAGG	switch fluorescence ratio	0.981

query: Need switch fluorescence ratio of GTCTATCTCT , thanks.
result: 1.01

query: Also need ATGGAACCTT , thanks.
result: 1.28

query: Also need TTAAGCCAGG , thanks.
result: 1.16

query: Also need TCTATTATAC , thanks.
result: 1.23

query: Also need TGTAATTTGA , thanks.
result: 0.984

query: Also need TAGGGGAGC , thanks.
result: 1.01

query: Also need TTTGTGGAGC , thanks.
result: 1.04

###

Listing: switch fluorescence ratio of selected sequences
# System: ATP;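 note: ATP exposure 15 min at 22 °C before imaging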
# PROCEDURE_DETAILS: switch fluorescence ratio, 500 uM ATP over buffer (Cy3 cluster intensity, sum of 5 cycles each) (fold (ratio)); higher = stronger signal-on switching upon ATP binding; sequences stand for … in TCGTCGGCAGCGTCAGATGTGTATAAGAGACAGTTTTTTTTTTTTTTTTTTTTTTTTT…TC
# CONDITION_PARAMETERS: aptamer strand: ATP DNA aptamer (quencher-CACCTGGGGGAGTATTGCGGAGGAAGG + anchor), 100 nM annealed; ATP concentration: 500 uM
Please give the numeric answer without any surrounding text.

RESIDUES	switch fluorescence ratio
CGAAAGGGAC	1.03
TGAAGCTGAT	1.02
TTTAGGAGGT	1.04
GACGGGGCAG	0.995
ATGTGCTGCC	0.983
CGGGTTTTCG	0.988

query: Need switch fluorescence ratio of TAAACGCCTC , thanks.
result: 1.08

query: Also need CATTTTATAT , thanks.
result: 1.02

query: Also need GTATTACAGG , thanks.
result: 1.04

query: Also need GGGGTGAGTA , thanks.
result: 0.98

query: Also need ATACTGTTAC , thanks.
result: 1.36

query: Also need GTTTTTACTG , thanks.
result: 1.05

query: Also need GAATATACGC , thanks.
result: 1.04

###

# Test system: ATP;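 note: ATP exposure 15 min at 22 °C before imaging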
# PROCEDURE_DETAILS: switch fluorescence ratio, 500 uM ATP over buffer (Cy3 cluster intensity, sum of 5 cycles each) (fold (ratio)); higher = stronger signal-on switching upon ATP binding; sequences stand for … in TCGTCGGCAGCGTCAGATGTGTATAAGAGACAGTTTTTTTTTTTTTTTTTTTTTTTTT…TC
# CONDITION_PARAMETERS: aptamer strand: ATP DNA aptamer (quencher-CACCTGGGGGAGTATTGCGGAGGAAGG + anchor), 100 nM annealed; ATP concentration: 500 uM
Listing: switch fluorescence ratio of selected sequences
Please give the numeric answer without any surrounding text.

RESIDUES	switch fluorescence ratio
TAGCTGAGTG	0.985
CCCTTGGGGG	1.01
TGTTGGCCGG	0.991

query: Need switch fluorescence ratio of TGGCCTTATT , thanks.
result: 0.992

query: Also need GGGTGTTCGG , thanks.
result: 0.979

###

# System: ATP;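 note: ATP exposure 15 min at 22 °C before imaging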
# PROCEDURE_DETAILS: switch fluorescence ratio, 500 uM ATP over buffer (Cy3 cluster intensity, sum of 5 cycles each) (fold (ratio)); higher = stronger signal-on switching upon ATP binding; sequences stand for … in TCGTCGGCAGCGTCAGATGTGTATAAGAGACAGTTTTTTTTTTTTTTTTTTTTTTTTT…TC
# CONDITION_PARAMETERS: aptamer strand: ATP DNA aptamer (quencher-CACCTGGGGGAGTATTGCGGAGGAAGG + anchor), 100 nM annealed; ATP concentration: 500 uM
REPORTED_ENDPOINT: switch fluorescence ratio
Please give the numeric answer without any surrounding text.

Consider the following illustrative entries.
RESIDUES	switch fluorescence ratio
GCAAATTCCG	1.03
AATGGTTTGG	0.985

query: Need switch fluorescence ratio of GCTGTAAGTT , thanks.
result: 0.99

query: Also need CTGGTGTTCT , thanks.
result: 1.01

query: Also need GGGCCCGTAT , thanks.
result: 1.01

query: Also need TTAAGGGCAG , thanks.
result: 1.01

query: Also need TATGTCTCTT , thanks.
result: 1.02

query: Also need TTTTAGTTGT , thanks.
result: 0.994

query: Also need TGGCTCTGGG , thanks.
result: 1.04

query: Also need ACGCTGGAAG , thanks.
result: 0.989

query: Also need GAGACGCTTA , thanks.
result: 1.07

###

# System: ATP;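 note: ATP exposure 15 min at 22 °C before imaging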
# PROCEDURE_DETAILS: switch fluorescence ratio, 500 uM ATP over buffer (Cy3 cluster intensity, sum of 5 cycles each) (fold (ratio)); higher = stronger signal-on switching upon ATP binding; sequences stand for … in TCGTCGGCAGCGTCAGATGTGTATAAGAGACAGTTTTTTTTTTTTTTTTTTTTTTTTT…TC
# CONDITION_PARAMETERS: aptamer strand: ATP DNA aptamer (quencher-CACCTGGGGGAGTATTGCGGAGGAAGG + anchor), 100 nM annealed; ATP concentration: 500 uM
Rule: y for switch fluorescence ratio not less than 1, n for anything less.

RESIDUES	GROUP
TGAAATGCTA	y

query: Evaluate CTCCAGAGGG : switch fluorescence ratio at minimum 1?
result: y

query: Also need GGTATTATCG , thanks.
result: n

###

# Tested on: ATP;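 note: ATP exposure 15 min at 22 °C before imaging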
# PROCEDURE_DETAILS: switch fluorescence ratio, 500 uM ATP over buffer (Cy3 cluster intensity, sum of 5 cycles each) (fold (ratio)); higher = stronger signal-on switching upon ATP binding; sequences stand for … in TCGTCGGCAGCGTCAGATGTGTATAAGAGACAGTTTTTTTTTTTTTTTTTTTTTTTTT…TC
# CONDITION_PARAMETERS: aptamer strand: ATP DNA aptamer (quencher-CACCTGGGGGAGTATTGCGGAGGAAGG + anchor), 100 nM annealed; ATP concentration: 500 uM
Rule: 1 (yes) for switch fluorescence ratio not less than 1, 0 (no) for anything less.

Previously resolved entries follow.
RESIDUES	GROUP
GTGGTCGGTA	0 (no)
TTGGCGTTTT	1 (yes)
TCGAACGTTT	1 (yes)
GGTTCGTCAC	1 (yes)
TACAAAGAGT	1 (yes)

query: Evaluate GGTTTGTGCT : switch fluorescence ratio at minimum 1?
result: 0 (no)

query: Also need GATGCGGCGT , thanks.
result: 1 (yes)
